Test system: DU145-DR (taxane resistant variant of DU145)
Assay: MTT assay cell viability, DU145-DR
Type: cell-based
Details: Homo sapiens, DU-145, DU145-DR cells, twenty-four hours, read-out: IC50, cytotoxic activity
pIC50: −log10 of the molar value.

{"smiles record": "Cc1ccc(CN(C(=O)CCl)c2cccc(B3OC(C)(C)C(C)(C)O3)c2)cc1", "pIC50": "5.00 to 5.30"}
